Organism: Mus musculus
assayProcedure: Toxicity against Swiss-Webster mouse assessed as irritation in ear per 5 ul after 24 hrs
Type: organism-based
runParameters: in vivo, topical_or_ocular

>  <molecule>
CCC/C=C/C=C\C(=O)O[C@@H]1[C@@H](C)[C@]2(O)[C@@H]3C=C(C)C(=O)[C@H]3CC(CO)=C[C@H]2[C@@H]2C(C)(C)[C@]12OC(C)=O

>  <qualifierOperator>
=

>  <ID50, µg>
0.07

$$$$
>  <molecule>
CCCCCCCCCCCCCC(=O)O[C@@H]1[C@@H](C)[C@@]2(O)[C@@H](C=C(CO)C[C@]3(O)C(=O)C(C)=C[C@@H]23)[C@@H]2C(C)(C)[C@]12OC(C)=O [PHORBOL MYRISTATE ACETATE]

>  <qualifierOperator>
=

>  <ID50, µg>
0.05

$$$$
>  <molecule>
CCC/C=C/C=C\C(=O)O[C@@H]1[C@@H](C)[C@]2(O)[C@@H]3C=C(C)C(=O)[C@@H]3CC(CO)=C[C@H]2[C@@H]2C(C)(C)[C@]12O

>  <qualifierOperator>
>

>  <ID50, µg>
100

$$$$
>  <molecule>
CC1=C[C@H]2[C@@]3(O)[C@H](C)[C@@H](OC(=O)c4ccccc4)[C@]4(OC(=O)c5ccccc5)[C@H]([C@@H]3C=C(CO)C[C@]2(O)C1=O)C4(C)C

>  <qualifierOperator>
=

>  <ID50, µg>
0.83

$$$$
